# Tested on: MDA-MB-231 multicell spheroids, viability (%T/C)
# test_details: Anticancer human tumor MDA-MB-231 cell line growth inhibition [IpAb];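 also: viability read after seven days of drug exposure; 100% = DMSO vehicle control viability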
# experimental_context: second compound 0.1 µM; first compound 0.00316 µM; active compounds read low
observed_property: viability, T/C (%)
Form entry: value (%) — number only.

# annotated cases, reported viability, T/C shown
Cn1ncnc1[C@H]1c2n[nH]c(=O)c3cc(F)cc(c23)N[C@@H]1c1ccc(F)cc1 + CC(C)NCC(C(=O)N1CCN(c2ncnc3c2C(C)CC3O)CC1)c1ccc(Cl)cc1    81.9
COc1c(OCCCN2CCOCC2)ccc2c3n(c(=NC(=O)c4cnc(N)nc4)nc12)CCN3 + CCN1CCN(Cc2ccc(Nc3ncc(F)c(-c4cc(F)c5nc(C)n(C(C)C)c5c4)n3)nc2)CC1    53.7
CC(C)n1nc(-c2ccc3oc(N)nc3c2)c2c(N)ncnc21 + CC(C)NCC(C(=O)N1CCN(c2ncnc3c2C(C)CC3O)CC1)c1ccc(Cl)cc1    68.6
CC(C)n1nc(-c2ccc3oc(N)nc3c2)c2c(N)ncnc21 + CCN1CCN(Cc2ccc(Nc3ncc(F)c(-c4cc(F)c5nc(C)n(C(C)C)c5c4)n3)nc2)CC1    37.4
COc1c(OCCCN2CCOCC2)ccc2c3n(c(=NC(=O)c4cnc(N)nc4)nc12)CCN3 + CC(C)NCC(C(=O)N1CCN(c2ncnc3c2C(C)CC3O)CC1)c1ccc(Cl)cc1    85.3

Attention now shifts to the item below.
q: Identify viability, T/C associated with the molecule Cn1ncnc1[C@H]1c2n[nH]c(=O)c3cc(F)cc(c23)N[C@@H]1c1ccc(F)cc1 + CCN1CCN(Cc2ccc(Nc3ncc(F)c(-c4cc(F)c5nc(C)n(C(C)C)c5c4)n3)nc2)CC1
a: 51.5
